studyTarget: Luciferin 4-monooxygenase (Photinus pyralis)
experimentNotes: qHTS profiling assay for firefly luciferase inhibitor/activator using purifed enzyme and Km concentrations of substrates (counterscreen for miR-21 project); note: nearly all actives have a fitted effect of over 55% in size; note: potency is the fitted concentration of half-maximal effect
appliedConditions: purified FLuc, luminescence inhibition; series mostly up to 57.5 µM
Hit rate of the full screen: of about 360,000 compounds, about 25,000 (6.9%) were called active. Not shown: some 9% with an inconclusive outcome. Many of the other results were omitted from the sample, so actives are more common in it than they were.
quantity: Potency

The following compounds have reported results that may help.
# compound, quantity, result
data = [
    ("Cc1ccc(C)c(C(C)NC(=O)C2CCCO2)c1 (stereo unspecified)", "Potency", "inactive"),
    ("Cc1cccc(N2CCN(C(=O)c3ccc(Nc4nc5ccccc5n5nnnc45)cc3)CC2)c1C", "Potency", "inactive"),
    ("CCOc1ccc(-n2nc3ccc(NC(=O)c4ccc(OC)c(Cl)c4)cc3n2)cc1", "Potency", "inactive"),
    ("Cc1cc(C)c2nc(NC(=O)C3CCCO3)sc2c1 (stereo unspecified)", "Potency", "3.79 µM (active)"),
    ("COc1cc(OC)cc(C(=O)Nc2cc3nn(-c4ccccc4)nc3cc2Cl)c1", "Potency", "5.36 µM (active)"),
]

Item O=C(NCc1ccc(Cl)cc1)c1ccc2c(c1)nnn2C1CCCC1 was tested on Luciferin 4-monooxygenase (Photinus pyralis); the reported Potency is inactive

Item Cc1ccc(-c2cn3c(n2)sc2cc(C(=O)NCc4cccs4)ccc23)c(C)c1 ; assay system Luciferin 4-monooxygenase (Photinus pyralis); Potency reported as inactive

----------
studyTarget: Luciferin 4-monooxygenase (Photinus pyralis)
experimentNotes: qHTS profiling assay for firefly luciferase inhibitor/activator using purifed enzyme and Km concentrations of substrates (counterscreen for miR-21 project); note: nearly all actives have a fitted effect of over 55% in size
appliedConditions: purified FLuc, luminescence inhibition; series mostly up to 57.5 µM
The campaign covered roughly 360,000 compounds. About 25,000 (6.9%) were called active. Not shown: some 9% with an inconclusive outcome. The call rests on the fitted dose curve; in most records, active means well fitted inhibition curve with a large enough effect; inconclusive means small, poorly fitted or top-dose-only effect; inactive means flat fitted curve, though single readings scatter. This is one part of a sample in which actives are shown more often than they occur.
Select the matching outcome among 1 = active, 0 = inactive

# compound, label
data = [
    ("Cc1ccc(Nc2c(-c3ccc(Cl)cc3)nc3sccn23)c(C)c1", 0),
    ("CC1=NNC(=O)C1CCC(=O)N/N=C\\c1ccc(Cl)c(Cl)c1 (stereo unspecified)", 0),
    ("CCCCN(CC)CCNC(=O)CCNC(=O)Cn1ccc2ccccc2c1=O", 0),
    ("CCOc1cc(-c2nnc(SCC(=O)NC3CCCCC3)nc2-c2ccc(OC)c(OCC)c2)ccc1OC", 0),
]

Query block: Test call for this compound, please: Cc1ccc(Nc2nnc(-c3ccc(C)c(S(=O)(=O)N4CCCCC4)c3)c3ccccc23)cc1
Result block: 0

Query block: What did the test return for CCCCCn1c(=O)[nH]c2cc(C(=O)NCCN(C)CCCC)ccc2c1=O ?
Result block: 0

Query block: Assay result, entry CCN1CCN(C(=O)CSc2ccc(C)cc2)CC1 — outcome?
Result block: 0

Query block: Identify the outcome logged in this assay for the compound shown: NCCCCCC(=O)N/N=C/c1ccc2nccnc2c1
Result block: 0

Query block: Look up the recorded call for CSc1ccc(/C=N\NC(=O)CC(=O)NC(C)C)cc1 in this test.
Result block: 0

Query block: Returns: the outcome recorded for CCOc1ccccc1NC(=O)Cn1c(=O)n(-c2cccc(C)c2)c(=O)c2c1c1cc(OC)ccc1n2C in this assay.
Result block: 0

Query block: Write down the call the test reported for this compound. Item: O=C(N/N=C/c1ccc(Cl)c(Cl)c1)c1ccc2nc[nH]c2c1
Result block: 1

----------
studyTarget: Luciferin 4-monooxygenase (Photinus pyralis) (UniProt P08659)
Sequence (P08659 whole entry, looked up): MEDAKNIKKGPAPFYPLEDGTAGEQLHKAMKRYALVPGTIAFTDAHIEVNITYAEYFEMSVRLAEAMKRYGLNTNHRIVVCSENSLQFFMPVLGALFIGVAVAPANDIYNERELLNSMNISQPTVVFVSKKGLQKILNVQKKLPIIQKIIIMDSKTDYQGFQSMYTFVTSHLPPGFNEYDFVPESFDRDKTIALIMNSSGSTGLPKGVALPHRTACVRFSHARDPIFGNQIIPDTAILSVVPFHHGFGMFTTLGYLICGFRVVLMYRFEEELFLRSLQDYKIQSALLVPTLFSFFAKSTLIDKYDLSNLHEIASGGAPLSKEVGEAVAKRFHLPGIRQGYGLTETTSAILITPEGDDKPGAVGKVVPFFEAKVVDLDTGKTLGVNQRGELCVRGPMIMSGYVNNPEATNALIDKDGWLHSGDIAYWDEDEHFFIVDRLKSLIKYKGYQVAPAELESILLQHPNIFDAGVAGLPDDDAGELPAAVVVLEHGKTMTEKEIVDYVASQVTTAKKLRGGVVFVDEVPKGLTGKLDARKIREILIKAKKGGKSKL
experimentNotes: qHTS profiling assay for firefly luciferase inhibitor/activator using purifed enzyme and Km concentrations of substrates (counterscreen for miR-21 project); note: nearly all actives have a fitted effect of over 55% in size; note: potency is the fitted concentration of half-maximal effect
appliedConditions: purified FLuc, luminescence inhibition; series mostly up to 57.5 µM
Out of some 360,000 compounds screened, about 25,000 (6.9%) were called active. Not shown: some 9% with an inconclusive outcome. Only a selection was taken, and actives are over-represented in it overall.
quantity: Potency

# chemicalSmiles, Potency
rows = [
    ("COc1ccc(NC(=O)NCc2ccc3c(c2)OCO3)c(OC)c1", "inactive"),
    ("CC(=O)c1ccc(NC(=O)CSc2nc(-c3ccccc3F)nc3c2c(=O)n(C)c(=O)n3C)cc1", "inactive"),
    ("COc1ccc(C(=O)C[n+]2ccc(N)c(C)c2C)cc1", "inactive"),
    ("COc1ccc(OC)c(/C=C/C(=O)c2ccc3c(c2)OCO3)c1", "4780 nM (active)"),
    ("COc1ccc(OC)c(/C=C/C(=O)OCC(=O)Nc2ccc3c(c2)OCCO3)c1", "inactive"),
    ("COc1ccc(C(=O)Nc2ccccc2C(=O)N/N=C/c2ccccc2OC)cc1", "75.7 nM (active)"),
]

Briefly, Potency measured for Cc1ccccc1CSc1nnc(CCCCCNC(=O)OC(C)(C)C)o1 : inactive

Lookup result for COc1ccccc1C(=O)NNC(=O)c1ccc(NC(=O)c2ccccc2)cc1 ; measured Potency: inactive

Measured Potency of COc1ccc(C(=O)Nc2cc(C)c(NC(=O)c3ccccc3OC)cn2)cc1 : 2130 nM (active)

GET /value?item= COc1cccc(NC(=O)Nc2ccc3c(c2)N(C)C(=O)c2ccccc2S3)c1 &field=Potency returns inactive

----------
studyTarget: Luciferin 4-monooxygenase (Photinus pyralis)
experimentNotes: qHTS profiling assay for firefly luciferase inhibitor/activator using purifed enzyme and Km concentrations of substrates (counterscreen for miR-21 project); note: nearly all actives have a fitted effect of over 55% in size; note: potency is the fitted concentration of half-maximal effect
appliedConditions: purified FLuc, luminescence inhibition; series mostly up to 57.5 µM
Screen size: about 360,000 compounds; about 25,000 (6.9%) were called active. Another 9% or so got no clear call; they are omitted. For the sample, actives were picked, then their nearest neighbours and some compounds at random.
quantity: Potency

Field: example entries. Status: answers known.
# molecule, Potency
data = [
    ("COc1ccc(CCNC(=O)CCCCn2c(=O)c3ccccc3n(Cc3ccccc3C)c2=O)cc1OC", "inactive"),
    ("O=C(CC1N=C2c3ccccc3N=C(SCc3cccc(Cl)c3)N2C1=O)NCc1ccc2c(c1)OCO2 (stereo not drawn)", "inactive"),
    ("Cn1c(CCN2CCCCCC2)nc2cc(NC(=O)Nc3ccccc3)ccc21", "21.3 µM (active)"),
    ("O=C(CN1CCN(c2nc(-c3ccccc3)cs2)CC1)NCc1ccc2c(c1)OCO2", "inactive"),
    ("CC1CCCN(c2cc3c(cc2F)c(=O)c(S(=O)(=O)c2cccc(Cl)c2)cn3Cc2ccccc2)C1 (stereo not drawn)", "inactive"),
    ("COc1ccc(-c2cc(C(=O)n3cnc4ccccc43)c3ccccc3n2)cc1", "5.36 µM (active)"),
    ("CCOc1cc(/C=C2\\SC(N3CCCCC3)=NC2=O)ccc1O", "10.7 µM (active)"),
    ("CCCC(=O)Nc1ccc2c(c1)nc(CCNC(=O)c1ccco1)n2C", "inactive"),
]

Record CN(C)CCCNC(=S)N1CCN(c2nc(-c3ccccc3)cs2)CC1 / Luciferin 4-monooxygenase (Photinus pyralis), Potency recorded as inactive

Known value: Luciferin 4-monooxygenase (Photinus pyralis) Potency of the molecule N#Cc1nc(/C=C/c2ccc(F)cc2)oc1NC1CCCCC1 equals inactive

I looked up CCOc1cc(C(=S)N2CCOCC2)ccc1O and its Potency for Luciferin 4-monooxygenase (Photinus pyralis) was inactive

Response field Potency (Luciferin 4-monooxygenase (Photinus pyralis)) for item CCCN(CCC)C(=O)C1CCCN(c2ncnc3c2nc2n3CCCCC2)C1 (stereo not drawn) : inactive

Record Cc1ccc(Cn2c(C)c3cnn(CC(=O)NCc4ccccc4)c(=O)c3c2C)cc1 ; system Luciferin 4-monooxygenase (Photinus pyralis); Potency = inactive

----------
studyTarget: Luciferin 4-monooxygenase (Photinus pyralis) (UniProt P08659)
experimentNotes: qHTS profiling assay for firefly luciferase inhibitor/activator using purifed enzyme and Km concentrations of substrates (counterscreen for miR-21 project); note: nearly all actives have a fitted effect of over 55% in size
appliedConditions: purified FLuc, luminescence inhibition; series mostly up to 57.5 µM
About 25,000 (6.9%) of roughly 360,000 compounds were called active. About 9% were inconclusive and are not listed. Calls follow the shape of the dose curve; as a rule, active = well fitted inhibition curve with a large enough effect; inconclusive = small, poorly fitted or top-dose-only effect; inactive = flat fitted curve, though single readings scatter. The entries come from a sample that favours actives as a whole.
Tick one outcome: T = active, F = inactive

Worked set:
# molecule, studyTarget, label
records = [
    ("COC(=O)c1scc(S(=O)(=O)C(C)(C)C)c1-n1cccc1", "Luciferin 4-monooxygenase (Photinus pyralis) (UniProt P08659)", "F"),
    ("O=S(=O)(NC1CC1)c1ccc(Cl)cc1", "Luciferin 4-monooxygenase (Photinus pyralis) (UniProt P08659)", "F"),
    ("O=S(=O)(Nc1ccccc1Br)c1cccs1", "Luciferin 4-monooxygenase (Photinus pyralis) (UniProt P08659)", "F"),
    ("O=C(NCC12CC3CC(CC(C3)C1)C2)c1cc2nc(-c3ccccc3)cc(C(F)(F)F)n2n1", "Luciferin 4-monooxygenase (Photinus pyralis) (UniProt P08659)", "F"),
    ("O=S(=O)(NCc1ccc(Cl)cc1Cl)c1cccs1", "Luciferin 4-monooxygenase (Photinus pyralis) (UniProt P08659)", "F"),
]

Query block: Identify the outcome logged in this assay for the molecule shown: O=C(Cc1cccs1)N1CCCC(c2nc(-c3ccc(S(=O)(=O)N4CCCC4)cc3)no2)C1 (stereo not drawn)
Result block: F

Query block: Identify the outcome logged in this assay for the molecule shown: COC(=O)c1ccc(/C=N/NC(=O)C(=O)N2CCCCCC2)cc1
Result block: F

Query block: Which outcome was entered for the molecule Cc1ccc(C)c(N2CCN(Cc3nnc(-c4ccccc4)o3)CC2)c1 in this test?
Result block: F

Query block: Test call for this molecule, please: CCOc1ccc(CCNC(=O)Cn2nc(CC)n3c(cc4sc(CC)cc43)c2=O)cc1OCC
Result block: F

Query block: Status in this test for CCc1ccc(CNC(=O)CCc2nc(-c3cccs3)no2)cc1 ?
Result block: F

Query block: // return assay outcome for CCOc1ccc(C(=O)Nc2cc(OC)ccc2OC)cc1
Result block: T

Query block: Given COc1ccc(C2CC(=O)N(Cc3ccccc3C)c3c2c(C)nn3-c2nc(C)cc(C)n2)c(OC)c1 (stereo not drawn) , state the outcome it received in this test.
Result block: F

Query block: Test call for this molecule, please: COC(=O)C1=C(C(=O)c2ccc(C)cc2)C(c2ccccc2)n2nnnc2N1 (stereo not drawn)
Result block: F

Query block: Hey, what did the test say about O=C(Nc1cccc(Cl)c1)Nc1ccccc1NS(=O)(=O)c1cccs1 ?
Result block: T

Query block: // return assay outcome for COc1ccc(OC)c(CNC(=O)CCc2nc(-c3cccs3)no2)c1
Result block: F

Query block: How was CCOC(=O)c1c(N)c(C#N)nn1-c1ccccc1C(=O)OC classified in this test?
Result block: F

Query block: Give the logged outcome of this assay for the following molecule: COc1cc(-c2noc(C3CCCN(S(=O)(=O)c4cccc(Cl)c4)C3)n2)cc(OC)c1OC (stereo not drawn)
Result block: F

Query block: Name the outcome recorded for Oc1cccc(/C=N/Nc2ccc(Cl)nn2)c1O in the assay.
Result block: T

Query block: Would you mind telling me which call this test gave CN1C(=O)/C(=C\c2ccc(-c3ccccc3)o2)SC1=S ?
Result block: T

Query block: # fetch the recorded call for COc1ccccc1C(=O)OCc1cc(=O)n2nc(-c3cccs3)sc2n1 here
Result block: F

Query block: Each molecule tested received a call. Report the one for O=C(N/N=C/c1ccc2c(c1)OCO2)C(=O)N1CCCC1 .
Result block: T

Query block: How did this test come out for COc1cc(C(=O)N2C(=O)c3cccc(N)c3C2=O)cc(OC)c1OC ?
Result block: F

Query block: State the result this test recorded for Clc1ccc(N/N=C/c2cccs2)nn1 .
Result block: F
